molecular target: biotinylated Gβ1γ2 mutant Leu117Ala (rat) (UniProt P54311); assay: phage ELISA, % of wild-type b-βγ
Sequence (P54311 whole entry L117A, chain 1 of 2): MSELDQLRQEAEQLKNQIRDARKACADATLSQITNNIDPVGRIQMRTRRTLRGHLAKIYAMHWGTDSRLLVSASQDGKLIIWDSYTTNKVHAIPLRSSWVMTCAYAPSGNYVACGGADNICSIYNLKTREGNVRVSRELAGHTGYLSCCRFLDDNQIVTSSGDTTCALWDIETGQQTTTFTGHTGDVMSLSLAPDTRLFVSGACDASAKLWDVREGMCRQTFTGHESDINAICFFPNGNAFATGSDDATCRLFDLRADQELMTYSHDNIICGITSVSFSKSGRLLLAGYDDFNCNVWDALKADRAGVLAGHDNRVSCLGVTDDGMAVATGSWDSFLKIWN
Sequence (P63212 2-68, chain 2 of 2, further chain): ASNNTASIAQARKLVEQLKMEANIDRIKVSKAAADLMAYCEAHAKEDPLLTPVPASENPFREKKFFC

binder	unit_abbreviation	% of Wild-Type Signal
SCKRTKAQILLAPCT (Group I; also called Cl) [phage C1 (SCKRTKAQILLAPCT)]	%	5.2
SIGKALFILGYPDYD [phage 3.14 (SIGKALFILGYPDYD)]	%	2.1
LCSKAYLLLGQTC (Group I) [phage 2F (LCSKAYLLLGQTC)]	%	2.1
SCEKRLGVRSCT (Group III) [phage C5 (SCEKRLGVRSCT)]	%	28.5
SCGHGLKVQSTIGACA (Group II) [phage 3C (SCGHGLKVQSTIGACA)]	%	10
SCEKRYGIEFCT [phage C4 (…)]	%	18.4
WCPPKAMTQLGIKAC (Group II) [phage C14 (WCPPKAMTQLGIKAC)]	%	3.8
WCPPKLEQWYDGCA (Group IV) [phage C2 (WCPPKLEQWYDGCA)]	%	1.5
